Assay: Half life in PBS at pH 7.4 by spectrophotometric analysis
Assay type: ADME
# half-life per entry
Number only, in h; omit the unit.

Ask: Looking for the measured half-life of CC(C)Cc1ccc(C(C)C(=O)OCc2ccccc2)cc1 (centres undefined) , can you help?
Reply: 2.1

====

# half-life per entry
Assay: Half life in 80% Homo sapiens (human) plasma at pH 7.4 at 10 mg
Assay type: ADME, cell-free
Conditions: 80% human plasma
Number only, in min; omit the unit.

# count of solved cases: 5
molecule="COC(=O)CNC(=O)C(C)c1ccc(CC(C)C)cc1 (stereo not given)" value_observed=53
molecule="CC(C)Cc1ccc(C(C)C(=O)OCC(O)CO)cc1 (stereo not given)" value_observed=29
molecule="CC(C)Cc1ccc(C(C)C(=O)OC(C)C)cc1 (stereo not given)" value_observed=39
molecule="CCC(C)OC(=O)C(C)c1ccc(CC(C)C)cc1 (stereo not given)" value_observed=39
molecule="CCCCOC(=O)C(C)c1ccc(CC(C)C)cc1 (stereo not given)" value_observed=29

Ask: Looking for the measured half-life of COC(=O)C(CC(C)C)NC(=O)C(C)c1ccc(CC(C)C)cc1 (stereo not given) , can you help?
Reply: 53

Ask: Here is the next molecule: CC(C)Cc1ccc(C(C)C(=O)OCc2ccccc2)cc1 (stereo not given)
Reply: 39

Ask: Here is the next molecule: COC(=O)C(Cc1ccccc1)NC(=O)C(C)c1ccc(CC(C)C)cc1 (stereo not given)
Reply: 53

Ask: Here is the next molecule: COC(=O)C(NC(=O)C(C)c1ccc(CC(C)C)cc1)C(C)C (stereo not given)
Reply: 53

Ask: Here is the next molecule: COC(=O)C(C)NC(=O)C(C)c1ccc(CC(C)C)cc1 (stereo not given)
Reply: 53

====

Assay: Half life in PBS at pH 7.4 by spectrophotometric analysis
Type: ADME
measured quantity: half-life (h)
Number only, in h; omit the unit.

compound="COC(=O)CNC(=O)C(C)c1ccc(CC(C)C)cc1 (stereo unspecified)" measured_quantity=half-life value_observed=2.58

Ask: Looking for the measured half-life of CC(C)Cc1ccc(C(C)C(=O)OC(C)C)cc1 (stereo unspecified) , can you help?
Reply: 2.1

Ask: Here is the next compound: COC(=O)C(C)NC(=O)C(C)c1ccc(CC(C)C)cc1 (stereo unspecified)
Reply: 2.58

Ask: Here is the next compound: CC(C)Cc1ccc(C(C)C(=O)OCC(O)CO)cc1 (stereo unspecified)
Reply: 2.1

Ask: Here is the next compound: COC(=O)C(CC(C)C)NC(=O)C(C)c1ccc(CC(C)C)cc1 (stereo unspecified)
Reply: 3.16

Ask: Here is the next compound: COC(=O)C(NC(=O)C(C)c1ccc(CC(C)C)cc1)C(C)C (stereo unspecified)
Reply: 3.3

====

Test: Protein binding to 6% egg albumin at 20 ug/ml
Details: read-out: PPB (converted)
I'd appreciate it if you could label each record using fraction unbound at 20 ug/ml and these ranges: b0: < 0.5; b1: ≥ 0.5 and < 0.6; b2: ≥ 0.6

Ask: Input COC(=O)C(Cc1ccccc1)NC(=O)C(C)c1ccc(CC(C)C)cc1 (stereo not given) ; output its category
Reply: b1

Ask: Here is the next molecule: COC(=O)C(C)NC(=O)C(C)c1ccc(CC(C)C)cc1 (stereo not given)
Reply: b2

Ask: Here is the next molecule: CCCCOC(=O)C(C)c1ccc(CC(C)C)cc1 (stereo not given)
Reply: b2

Ask: Here is the next molecule: COC(=O)CNC(=O)C(C)c1ccc(CC(C)C)cc1 (stereo not given)
Reply: b2

====

Experiment: Half life in PBS at pH 7.4 by spectrophotometric analysis
Assay type: ADME
measured quantity: half-life (h)
Number only, in h; omit the unit.

compound="CCC(C)OC(=O)C(C)c1ccc(CC(C)C)cc1 (stereo not drawn)" unit_spec=h value_observed=2.1
compound="CCCCOC(=O)C(C)c1ccc(CC(C)C)cc1 (stereo not drawn)" unit_spec=h value_observed=2.1

# context switch: different compound, same half-life
Ask: Looking for the measured half-life of COC(=O)C(Cc1ccccc1)NC(=O)C(C)c1ccc(CC(C)C)cc1 (stereo not drawn) , can you help?
Reply: 2.97

====

Experiment: Protein binding to 6% egg albumin at 20 ug/ml
Details: read-out: PPB (converted)
measured quantity: fraction unbound at 20 ug/ml
Answer with a number only.

molecule="CC(C)Cc1ccc(C(C)C(=O)OCc2ccccc2)cc1 (stereo unspecified)" value_observed=0.63
molecule="CCC(C)OC(=O)C(C)c1ccc(CC(C)C)cc1 (stereo unspecified)" value_observed=0.33
molecule="COC(=O)C(CC(C)C)NC(=O)C(C)c1ccc(CC(C)C)cc1 (stereo unspecified)" value_observed=0.49
molecule="CC(C)Cc1ccc(C(C)C(=O)OCC(O)CO)cc1 (stereo unspecified)" value_observed=0.77
molecule="CC(C)Cc1ccc(C(C)C(=O)OC(C)C)cc1 (stereo unspecified)" value_observed=0.35

# context switch: different molecule, same fraction unbound at 20 ug/ml
Ask: Looking for the measured fraction unbound at 20 ug/ml of COC(=O)C(NC(=O)C(C)c1ccc(CC(C)C)cc1)C(C)C (stereo unspecified) , can you help?
Reply: 0.55

Source listed as ChEMBL document CHEMBL3046468.
